The origin of these recorded values is paper PMC11791359.

# protocolNotes: Pharmacokinetic study, single intravenous injection
# Design: species or system Sprague-Dawley (SD) rats
# experimentalSetup: Sprague-Dawley, rat, in vivo
# Procedure: A pharmacokinetic (PK) study was performed to assess whether PMD could improve Angoline's systemic circulation and extend its half-life. Following a single intravenous injection of various formulations into Sprague-Dawley (SD) rats, blood samples were collected at predetermined time points and analyzed using HPLC. As illustrated in Fig. S19A and summarized in Table 1, the plasma concentration-time curves and PK parameters are presented. […]
measuredQuantity: C0
Write your answer as a measured quantity: the number, then the unit.

The molecule listed as COc1ccc2c(c1OC)C(OC)N(C)c1c-2ccc2cc3c(cc12)OCO3 (stereo not shown) has a reported C0 of 3670 ng/mL

###

# protocolNotes: Pharmacokinetic study, single intravenous injection
# Parameters: species or system Sprague-Dawley (SD) rats
# experimentalSetup: Sprague-Dawley, rat, in vivo, SD rats, single i.v.
measuredQuantity: clearance (mL/min)
Value expressed in mL/min; do not type the unit.

The compound listed as COc1ccc2c(c1OC)C(OC)N(C)c1c-2ccc2cc3c(cc12)OCO3 (stereo not shown) [Angoline] has a reported clearance of 2.29

###

# protocolNotes: Pharmacokinetic study, single intravenous injection
# Set-up: species or system Sprague-Dawley (SD) rats
# experimentalSetup: Sprague-Dawley, rat, in vivo, SD rats, single i.v.
measuredQuantity: AUC(0-t) (µg·h/mL)
Value expressed in µg·h/mL; do not type the unit.

The molecule listed as COc1ccc2c(c1OC)C(OC)N(C)c1c-2ccc2cc3c(cc12)OCO3 (stereo not shown) has a reported AUC(0-t) of 13.2

###

# protocolNotes: Pharmacokinetic study, single intravenous injection
# Set-up: species or system Sprague-Dawley (SD) rats
# experimentalSetup: Sprague-Dawley, rat, in vivo, SD rats, single i.v.
measuredQuantity: AUC(0-inf) (ng·h/mL)
Value expressed in ng·h/mL; do not type the unit.

The compound listed as COc1ccc2c(c1OC)C(OC)N(C)c1c-2ccc2cc3c(cc12)OCO3 (stereo not shown) has a reported AUC(0-inf) of 15400

###

# protocolNotes: Pharmacokinetic study, single intravenous injection
# Set-up: species or system Sprague-Dawley (SD) rats
# experimentalSetup: Sprague-Dawley, rat, in vivo, SD rats, single i.v.
measuredQuantity: half-life (min)
Value expressed in min; do not type the unit.

The compound listed as COc1ccc2c(c1OC)C(OC)N(C)c1c-2ccc2cc3c(cc12)OCO3 (stereo not shown) has a reported half-life of 249

###

# protocolNotes: Pharmacokinetic study, single intravenous injection
# Parameters: species or system Sprague-Dawley (SD) rats
# experimentalSetup: Sprague-Dawley, rat, in vivo, SD rats, single i.v.
measuredQuantity: MRT (h)
Value expressed in h; do not type the unit.

The compound listed as COc1ccc2c(c1OC)C(OC)N(C)c1c-2ccc2cc3c(cc12)OCO3 (stereo not shown) [Angoline] has a reported MRT of 6.08
